assay: Cytotoxicity against human IGRO cells by soft agar assay; format: functional
measuredEndpoint: GI50 (nM)
Output spec: scalar in nM, unitless text.

Query string: Sample C=C1CCCC(C)(C)C1CC[C@@]1(C)CC[C@H]([C@@H](C)C(=O)O)OO1 (stereo partly drawn) [NAPAPUIN B] — what was its GI50?
Result string: 630

Query string: Sample C=C1CCCC(C)(C)C1CC[C@]1(C)CC[C@@H]([C@@H](C)C(=O)O)OO1 (stereo partly drawn) [EPINUAPAPUIN B] — what was its GI50?
Result string: 1730

Query string: Sample C=C1CCCC(C)(C)C1(O)CC/C(C)=C/CC[C@]1(C)CC[C@@H]([C@@H](C)C(=O)OC)OO1 (stereo partly drawn) [MUQUBILIN B] — what was its GI50?
Result string: 2420

Query string: Sample C=C1CCC[C@H]2[C@](C)(CC[C@]3(C)CC[C@H]([C@@H](C)C(=O)O)OO3)[C@@H](C)CC[C@]12C [SIGMOSCEPTRELLIN A] — what was its GI50?
Result string: 120

Query string: Sample C=C1CCC[C@@H]2[C@@H](CC[C@@]3(C)CC[C@H]([C@H](C)C(=O)O)OO3)[C@H](C)CC[C@@]12C [SIGMOSCEPTRELLIN B] — what was its GI50?
Result string: 100

Query string: Sample C=C1CCCC(C)(C)C1CC[C@]1(C)CC[C@H]([C@@H](C)C(=O)OC)OO1 (stereo partly drawn) [NUAPAPUIN B] — what was its GI50?
Result string: 500
